Measured Dmax, listed per entry for reference.
experimental.target: MK2 (Homo sapiens, UniProt P49137)
Sequence (P49137 whole entry): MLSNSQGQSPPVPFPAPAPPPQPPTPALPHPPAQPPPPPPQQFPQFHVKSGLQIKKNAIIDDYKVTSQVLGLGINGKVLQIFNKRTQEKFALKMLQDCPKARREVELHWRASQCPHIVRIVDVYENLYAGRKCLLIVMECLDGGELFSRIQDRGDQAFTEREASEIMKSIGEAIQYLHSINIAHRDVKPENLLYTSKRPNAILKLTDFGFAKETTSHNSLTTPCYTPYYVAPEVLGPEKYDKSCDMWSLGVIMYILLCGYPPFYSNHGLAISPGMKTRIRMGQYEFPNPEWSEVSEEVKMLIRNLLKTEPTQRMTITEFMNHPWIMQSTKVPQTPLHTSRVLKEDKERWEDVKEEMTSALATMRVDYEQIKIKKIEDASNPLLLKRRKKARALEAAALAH
protocol: MK2 degradation in human SW1353 cells (MSD, 24 h)
Assay type: cell-based
Parameters: endogenous in cells; host or cells: SW-1353 (ATCC HTB-94)
assay.context: read-out: MK2 MSD SW 1353 24 h Dmax %

Recorded results for 2 molecules are shown here.
>>> value_reported("C[C@@H]1CNc2c(sc3ccc4nc(-c5ccc(N6CCC(CN7CCC(c8cccc9c8n(C)c(=O)n9C8CCC(=O)NC8=O)CC7)CC6)cc5F)ccc4c23)C(=O)N1 (some centres unmarked)")
"> 75%"
>>> value_reported("C[C@@H]1Cc2oc(-c3ccnc(-c4ccc(N5CCN(CC6CCN(c7cccc8c7n(C)c(=O)n8C7CCC(=O)NC7=O)CC6)CC5)nc4)c3)cc2C(=O)N1 (some centres unmarked)")
"50 to 75%"

Data request: Would you please give the reported Dmax of C[C@@H]1CNc2c(sc3ccc4nc(-c5ccc(N6CCN(CC7CCN(c8cccc9c8n(C)c(=O)n9C8CCC(=O)NC8=O)CC7)CC6)nc5)ccc4c23)C(=O)N1 (some centres unmarked) with MK2 (Homo sapiens, UniProt P49137)?
Data returned: > 75%

Data request: # return Dmax for C[C@@H]1CNc2c(sc3ccc4nc(-c5cc(N6CCN(CC7CCN(c8ccc9c(c8)n(C)c(=O)n9C8CCC(=O)NC8=O)CC7)CC6)nc(C(C)(C)O)c5)ccc4c23)C(=O)N1 (some centres unmarked) , test system: MK2 (Homo sapiens, UniProt P49137)
Data returned: < 50%

Data request: Report Dmax on MK2 (Homo sapiens, UniProt P49137) for this entry: C[C@@H]1CNc2c(sc3ccc4nc(-c5ccc(N6CCC(CN7CCN(c8ccc9c(c8)n(C)c(=O)n9C8CCC(=O)NC8=O)CC7)CC6)cc5F)ccc4c23)C(=O)N1 (some centres unmarked)
Data returned: > 75%

====

experimental.target: MK2 (Homo sapiens)
protocol: MK2 degradation in human SW1353 cells (MSD, 24 h)
Type: cell-based
Set-up: endogenous in cells; host or cells: SW-1353 (ATCC HTB-94)
assay.context: read-out: MK2 MSD SW 1353 24 h Dmax %
parameter: Dmax

Worked set:
>>> value_reported("Cc1cc(N2CCN(CC3CCN(c4ccc5c(c4)n(C)c(=O)n5C4CCC(=O)NC4=O)CC3)CC2)ccc1-c1cc(-c2cc3c([nH]2)CCNC3=O)ccn1 (centres unmarked)")
"< 50%"
>>> value_reported("O=C1CCN(c2cncc3c(N4CCN(CC5CCN(c6ccc(-c7cc(-c8cc9c([nH]8)C8(CC8)CNC9=O)ccn7)cc6)CC5)CC4)cccc23)C(=O)N1")
"> 75%"
>>> value_reported("Cc1cc(N2CCN(CC3CCN(c4ccc5c(c4)n(C)c(=O)n5C4CCC(=O)NC4=O)CC3)CC2)ccc1-c1cc(-c2cc3c([nH]2)C2(CC2)CNC3=O)ccn1 (centres unmarked)")
"< 50%"
>>> value_reported("Cc1cc(-c2ccc3c(ccc4sc5c(c43)NC[C@@H](C)NC5=O)n2)cnc1N1CCN(CCCc2ccc3c(c2)n(C)c(=O)n3C2CCC(=O)NC2=O)CC1 (some centres unmarked)")
"50 to 75%"
>>> value_reported("Cn1c(=O)n(C2CCC(=O)NC2=O)c2cccc(N3CC(CN4CCN(c5ccc(-c6cc(-c7cc8c([nH]7)C7(CC7)CNC8=O)ccn6)cc5)CC4)C3)c21 (centres unmarked)")
"> 75%"
>>> value_reported("Cc1cc(N2CCC(CN3CCN(c4ccc5c(c4)n(C)c(=O)n5C4CCC(=O)NC4=O)CC3)CC2)ccc1-c1ccc2c(ccc3sc4c(c32)NC[C@@H](C)NC4=O)n1 (some centres unmarked)")
"> 75%"

Data request: Name the recorded Dmax of C[C@@H]1CNc2c(sc3ccc4nc(-c5ccc(N6CCN(CC7CCN(c8ccc9c(c8)n(C)c(=O)n9C8CCC(=O)NC8=O)CC7)CC6)cc5F)ccc4c23)C(=O)N1 (some centres unmarked) , assay system MK2 (Homo sapiens).
Data returned: > 75%

Data request: Enter recorded Dmax with MK2 (Homo sapiens) for C[C@@H]1CNc2c(sc3ccc4nc(-c5ccc(N6CCN(CC7CN(c8ccc9c(c8)n(C)c(=O)n9C8CCC(=O)NC8=O)C7)CC6)cc5F)ccc4c23)C(=O)N1 (some centres unmarked) here.
Data returned: > 75%

Data request: Please look at C[C@@H]1CNc2c(sc3ccc4nc(N5C[C@@H]6C[C@H]5CN6CC5CCN(c6cccc7c6n(C)c(=O)n7C6CCC(=O)NC6=O)CC5)ccc4c23)C(=O)N1 (some centres unmarked) and tell me its recorded Dmax on MK2 (Homo sapiens).
Data returned: < 50%

Data request: State Dmax on MK2 (Homo sapiens). Entry: C[C@@H]1Cc2oc(-c3ccnc(-c4ccc(N5CCN(CC6CN(c7ccc8c(c7)n(C)c(=O)n8C7CCC(=O)NC7=O)C6)CC5)nc4)c3)cc2C(=O)N1 (some centres unmarked)
Data returned: > 75%

Data request: Quote MK2 (Homo sapiens) Dmax for entry C[C@@H]1CNc2c(sc3ccc4nc(-c5ccc(N6CCN(CCCc7ccc8c(c7)n(C)c(=O)n8C7CCC(=O)NC7=O)CC6)cc5)ccc4c23)C(=O)N1 (some centres unmarked) .
Data returned: > 75%

Data request: Please respond with reported Dmax (system MK2 (Homo sapiens)) for C[C@@H]1CNc2c(sc3ccc4nc(N5CCN(CC6CCN(c7ccc8c(c7)n(C)c(=O)n8C7CCC(=O)NC7=O)CC6)CC5)ccc4c23)C(=O)N1 (some centres unmarked) .
Data returned: > 75%

Data request: With MK2 (Homo sapiens) as the test system, provide measured Dmax for this compound: C[C@@H]1CNc2c(sc3ccc4nc(-c5cccc(N6CCN(CCCc7ccc8c(c7)n(C)c(=O)n8C7CCC(=O)NC7=O)CC6)c5)ccc4c23)C(=O)N1 (some centres unmarked)
Data returned: > 75%

Data request: GET Dmax where system = MK2 (Homo sapiens) and item = C[C@@H]1CNc2c(sc3ccc4nc(-c5ccc(N6CCC(CN7CCN(c8cccc9c8n(C)c(=O)n9C8CCC(=O)NC8=O)CC7)CC6)cc5)ccc4c23)C(=O)N1 (some centres unmarked)
Data returned: > 75%

Data request: For MK2 (Homo sapiens), give Dmax of the listed compound: Cn1c(=O)n(C2CCC(=O)NC2=O)c2cccc(CCCN3CCN(c4ccc(-c5cc(-c6cc7c([nH]6)C6(CCCC6)CNC7=O)ccn5)cc4)CC3)c21 (centres unmarked)
Data returned: > 75%

Data request: Answer with Dmax of CN1CC2(CNC(=O)c3c2[nH]c2c3CCc3cnc(-c4ccc(CN5CCC(OCC#Cc6ccc7c(c6)n(C)c(=O)n7C6CCC(=O)NC6=O)CC5)cc4F)cc3-2)C1 (centres unmarked) measured for MK2 (Homo sapiens).
Data returned: < 50%

Data request: Answer briefly: Dmax recorded on MK2 (Homo sapiens) for C[C@@H]1CN(C)c2c(sc3ccc4nc(-c5ccc(N6CCN(CCc7cccc8c7n(C)c(=O)n8C7CCC(=O)NC7=O)CC6)nc5)ccc4c23)C(=O)N1 (some centres unmarked)
Data returned: > 75%

====

experimental.target: MK2 (Homo sapiens, UniProt P49137)
protocol: MK2 degradation in human THP-1 monocytic cells (MSD, 24 h)
Type: cell-based
Set-up: endogenous in cells
assay.context: THP-1, THP-1 cells
Catalogue of Dmax values

Consider the following illustrative entries.
>>> value_reported("Cn1c(=O)n(C2CCC(=O)NC2=O)c2cccc(N3CCC(CN4CCN(c5ccc(-c6cc(-c7cc8c([nH]7)CCNC8=O)ccn6)cn5)CC4)CC3)c21 (stereo not drawn) [Compound I-138]")
"> 75%"
>>> value_reported("Cn1c(=O)n(C2CCC(=O)NC2=O)c2ccc(N3CCC(CN4CCN(c5ccc(-c6cc(-c7cc8c([nH]7)CCNC8=O)ccn6)cc5)CC4)CC3)cc21 (stereo not drawn) [Compound I-143]")
"> 75%"
>>> value_reported("C[C@@H]1CN(C)c2c(sc3ccc4nc(-c5ccc(N6CCN(CC7CCN(c8ccc9c(c8)n(C)c(=O)n9C8CCC(=O)NC8=O)CC7)CC6)nc5)ccc4c23)C(=O)N1 (stereo partly drawn) [Compound I-268]")
"> 75%"

Data request: Please give the documented Dmax of C[C@@H]1CNc2c(sc3ccc4nc(-c5ccc(N6CCC(CN7CCN(c8cccc9c8n(C)c(=O)n9C8CCC(=O)NC8=O)CC7)CC6)cc5)ccc4c23)C(=O)N1 (stereo partly drawn) [Compound I-315]
Data returned: > 75%

Data request: Please indicate Dmax recorded for Cn1c(=O)n(C2CCC(=O)NC2=O)c2ccc(N3CC(CN4CCN(c5ccc(-c6cc(-c7cc8c([nH]7)C7(CCCC7)CNC8=O)ccn6)cc5)CC4)C3)cc21 (stereo not drawn) [Compound I-415]
Data returned: > 75%

Data request: Give Dmax for the following compound: C[C@@H]1CN(C)c2c(sc3ccc4nc(-c5cccc(N6CCC(CN7CCN(c8cccc9c(N%10CCC(=O)NC%10=O)cncc89)CC7)CC6)c5)ccc4c23)C(=O)N1 [Compound I-267]
Data returned: < 50%
